- experiment.description: Prophylactic study: hematological parameters
- Assay type: in vivo, Wistar strain albino rats
- condition.context: HFD+normal diet, day 15
test.readout: Platelet count

| compound | measured.result |
| --- | --- |
| CC(C)c1c(C(=O)Nc2ccccc2)c(-c2ccccc2)c(-c2ccc(F)cc2)n1CC[C@@H](O)C[C@@H](O)CC(=O)O [Statin, Atorvastatin] | 905 10³/µL |

----------
- experiment.description: Therapeutic study: hematological parameters; note: test concentration or dose not given here
- Type: in vivo, Wistar strain albino rats
- condition.context: HFD continued, day 15

| molecule | Platelet count |
| --- | --- |
| CC(C)c1c(C(=O)Nc2ccccc2)c(-c2ccccc2)c(-c2ccc(F)cc2)n1CC[C@@H](O)C[C@@H](O)CC(=O)O [Statin, Atorvastatin] | 1070 10³/µL |
